- target: GluN2B glutamate receptors expressed in mammalian cells (Homo sapiens (Human), UniProt Q05586+Q13224)
- Sequence (Q13224 27-1484, other chains not shown): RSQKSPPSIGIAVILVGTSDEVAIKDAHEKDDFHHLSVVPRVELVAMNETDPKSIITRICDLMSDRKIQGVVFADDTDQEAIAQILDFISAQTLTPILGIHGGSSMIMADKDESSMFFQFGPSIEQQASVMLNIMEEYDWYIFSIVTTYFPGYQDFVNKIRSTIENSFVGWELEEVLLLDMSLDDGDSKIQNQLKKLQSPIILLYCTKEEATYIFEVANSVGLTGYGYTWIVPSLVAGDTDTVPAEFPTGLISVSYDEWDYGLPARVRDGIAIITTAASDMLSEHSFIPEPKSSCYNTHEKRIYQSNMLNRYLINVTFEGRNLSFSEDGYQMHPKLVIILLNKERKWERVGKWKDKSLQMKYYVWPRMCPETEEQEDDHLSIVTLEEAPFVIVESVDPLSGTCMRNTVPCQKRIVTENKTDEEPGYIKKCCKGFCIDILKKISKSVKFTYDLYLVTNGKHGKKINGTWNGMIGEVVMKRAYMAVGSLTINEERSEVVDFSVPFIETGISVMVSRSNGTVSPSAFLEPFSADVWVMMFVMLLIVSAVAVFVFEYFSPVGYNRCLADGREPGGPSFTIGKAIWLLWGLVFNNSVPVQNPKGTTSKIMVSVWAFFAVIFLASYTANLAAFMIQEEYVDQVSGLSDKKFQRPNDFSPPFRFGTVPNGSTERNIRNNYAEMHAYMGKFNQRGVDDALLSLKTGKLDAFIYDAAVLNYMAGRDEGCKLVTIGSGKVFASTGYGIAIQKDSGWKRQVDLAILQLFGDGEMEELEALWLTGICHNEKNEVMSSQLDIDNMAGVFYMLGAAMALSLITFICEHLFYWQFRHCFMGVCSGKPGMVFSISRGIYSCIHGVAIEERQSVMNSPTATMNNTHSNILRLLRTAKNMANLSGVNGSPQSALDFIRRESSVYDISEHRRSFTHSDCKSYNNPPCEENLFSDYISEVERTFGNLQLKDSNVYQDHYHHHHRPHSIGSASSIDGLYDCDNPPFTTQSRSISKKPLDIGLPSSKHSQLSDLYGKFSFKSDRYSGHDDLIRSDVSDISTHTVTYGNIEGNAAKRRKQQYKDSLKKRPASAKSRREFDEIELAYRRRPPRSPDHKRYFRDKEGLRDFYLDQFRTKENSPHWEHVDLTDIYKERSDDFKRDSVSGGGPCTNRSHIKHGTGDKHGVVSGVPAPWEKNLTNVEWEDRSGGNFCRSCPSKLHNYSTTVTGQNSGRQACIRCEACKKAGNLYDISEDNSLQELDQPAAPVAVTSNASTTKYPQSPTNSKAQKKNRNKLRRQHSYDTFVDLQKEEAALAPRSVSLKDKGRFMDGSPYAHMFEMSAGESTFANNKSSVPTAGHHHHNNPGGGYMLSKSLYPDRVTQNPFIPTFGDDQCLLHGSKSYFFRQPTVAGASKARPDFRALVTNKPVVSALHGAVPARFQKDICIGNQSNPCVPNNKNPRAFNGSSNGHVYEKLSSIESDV
- test protocol: Whole-cell patch clamp of mammalian cells (Ionworks Barracuda), positive allosteric modulation, GluN2B
- Format: cell-based
- assay context: peak current amplitude; co-application with EC20 L-glutamate and 30 μM glycine; read-out: GluN2B PCA EMax (%)
observed property: Emax

Request: Data request, read-out Emax, for CC[C@]1(O)CC[C@H]2C(=CC[C@@H]3[C@@H]2CC[C@]2(C)[C@@H]([C@H](C)[C@H](O)CCC(C)C)CC[C@@H]32)C1
Result: < 100%

Request: What do you have for CC[C@]1(O)CC[C@H]2[C@@H](CC[C@@H]3[C@@H]2CC[C@]2(C)[C@@H]([C@H](C)[C@H](O)CCC(C)C)CC[C@@H]32)C1 ?
Result: 100 to 500%

Request: What do you have for CC[C@]1(O)CC[C@@]2(C)[C@@H](CC[C@@H]3[C@@H]2CC[C@]2(C)[C@@H]([C@H](C)[C@@H](O)Cc4ccccc4)CC[C@@H]32)C1 ?
Result: < 100%
